- Tested on: Toxoplasma gondii RH (in HFF)
- protocol_summary: parasite growth relative to the screen mean (all compounds = 100%); higher = less inhibition of parasite growth
- protocol_conditions: 5 µM; 72 h; oxygen 21 %
Structures can show the parent of a compound that is named as a salt.
parameter_measured: parasite growth (%)
Give bare numbers, in %.

In the examples that follow, each entry is paired with its recorded parasite growth.
> print(dat)
                                    molecule  numeric.result
 1  COC1(C2=NCCN2)COc2ccccc2O1 (stereo unspecified)             136
 2  CS(=O)(=O)c1ccc(Cn2c3c(c4cc(F)cc(F)c42)CCCC3CC(=O)O)cc1 (stereo unspecified)             120
 3            CCn1c(=O)[nH]c2cc(Cl)c(Cl)cc21            89.8
 4  CCCCCCN(CCCCCC)C(=O)Cc1c(-c2ccc(F)cc2)[nH]c2ccccc12             151
 5    Cc1ccc(/C=N/NC(=O)c2ccccc2Oc2ccccc2)o1            72.7
 6  OC[C@H]1O[C@@H](n2cnc3c(N[C@H]4CCC[C@@H]4O)ncnc32)[C@H](O)[C@@H]1O             140
 7  CC[C@H](C)C(=O)O[C@H]1CCC=C2C=C[C@H](C)[C@H](CC[C@@H]3C[C@@H](O)CC(=O)O3)[C@H]21 [Mevastatin]             109
 8  CCOc1ccc(Nc2nc(-c3c(C)nc4ccccn34)cs2)cc1             127
 9  Cc1nc2sccn2c(=O)c1CCN1CCC(=C(c2ccccc2)c2ccc(F)cc2)CC1             106
10  Nc1cc(N2CCCCC2)nc(N)[n+]1[O-] [Minoxidil]             111

Quick request: parasite growth for each listed item, please.
1. Nc1ncn([C@H]2C[C@H](O)[C@@H](CO)O2)c(=O)n1 [Decitabine]
2. COC1CCC(C(=O)c2ccc3nc4c(cc3c2)CCCO4)CC1 (stereo unspecified)
3. C#CCN1C(C)=C(C(=O)OC)C(c2cccc([N+](=O)[O-])c2)C(C(=O)OCC)=C1C (stereo unspecified)
4. c1ccc2oc(C3=NCCN3)cc2c1 [2-BFI hydrochloride]
5. O=C1C=CC(=O)C2=C1C1c3ccccc3C2c2ccccc21
6. CCC(=O)OCN1C(=O)C=CC1=O
7. CCCOc1ccccc1-c1nc2[nH]nnc2c(=O)[nH]1 [Zaprinast]
8. COC(=O)/C=C/c1cccc(N(Cc2ccc(-c3ccc(N(C)C)cc3)cc2)C(=O)C2CCCCC2)c1 [Fexaramine]

[out]
1. 119
2. 136
3. 157
4. 109
5. 137
6. 124
7. 98.3
8. 159

[in] Give the measured parasite growth of Cc1cc(C(=O)O)sc1C(N)C(=O)O (stereo unspecified) .
[out] 126

----------
Task for the reader: assign each of the following compounds its reported parasite growth.
- Test system: Toxoplasma gondii RH (in HFF)
- protocol_summary: parasite growth relative to the screen mean (all compounds = 100%); higher = less inhibition of parasite growth
- protocol_conditions: 5 µM; 72 h; oxygen 21 %
Counter-ions that a name gives are not always drawn.
Give bare numbers, in %.

In the examples that follow, each entry is paired with its recorded parasite growth.
> print(dat)
                                   compound  parameter.measured  unit.spec  numeric.result
1       CCCCCCCCc1ccc(-c2ccc(C(=O)O)cc2)cc1     parasite growth          %             111
2  CN(CC[C@@H](Oc1ccc(-c2ccccc2)cc1)c1ccc(F)cc1)CC(=O)O [ALX 5407 hydrochloride]     parasite growth          %             136
3  C=C1/C(=C\C=C2/CCC[C@]3(C)[C@@H]([C@H](C)/C=C/[C@@H](O)C4CC4)CC[C@@H]23)C[C@@H](O)C[C@@H]1O     parasite growth          %            81.2

Quick request: parasite growth for each listed item, please.
1. O=S(=O)(NCCNC/C=C/c1ccc(Br)cc1)c1cccc2cnccc12 [H 89 dihydrochloride]
2. Cc1cc2nc3c(=O)[nH]c(=O)nc-3n(C)c2cc1C=O
3. Cc1ccc(S(=O)(=O)/C=C/C#N)cc1
4. Cc1ccc(NC(=O)c2cccc(N(C)C)c2)cc1NC(=O)c1ccc(O)cc1

[out]
1: 26.2; 2: 22.6; 3: 135; 4: 141

Quick request: parasite growth for each listed item, please.
1. CC(C)CC(NC(=O)OCC1c2ccccc2-c2ccccc21)C(=O)O (centres undefined)
2. CCCNC(=O)N1N=C(c2ccc(N)cc2)c2cc3c(cc2C1C)OCO3 (centres undefined)

[out]
[59.8, 99.9]

----------
- Tested on: Toxoplasma gondii RH (in HFF)
- protocol_summary: parasite growth relative to the screen mean (all compounds = 100%); higher = less inhibition of parasite growth
- protocol_conditions: 5 µM; 72 h; oxygen 21 %
Where a name gives a salt, the structure may show the parent alone.
Record True whenever parasite growth is at 70% or higher; record False when lower.

These solved cases illustrate the format of a correct answer.
> print(dat)
                                   compound    cat
1  Cc1nnc(-c2ccc3occ(-c4ccc([S+](C)[O-])cc4)c3c2)o1 (stereo not given)   True
2  COCCOC(=O)C1=C(C)NC(C)=C(C(=O)OC(C)C)C1c1cccc([N+](=O)[O-])c1 (stereo not given)   True
3  OC(CNCC(O)C1CCc2cc(F)ccc2O1)C1CCc2cc(F)ccc2O1 (stereo not given) [Nebivolol hydrochloride]  False
4          COc1cccc(-c2cc(=O)c3ccccc3o2)c1N   True
5     Cc1nc2ccc(NC(=O)Nc3ccnc4cccnc34)cc2o1   True
6  C=C1C(=O)O[C@@H]2/C=C(\C)CC/C=C(\C)CC[C@@H]12 [Costunolide]  False
7              COc1cc(NC(=O)c2ccccn2)ccc1Cl   True
8  Nc1nc(NCCc2ccc(O)cc2)nc2nc(-c3ccco3)nn12  False

Kindly review the next compound as well.
[in] Can N=C(N)NC(=O)c1nc(Cl)c(N)nc1N [Amiloride hydrochloride] be said to have parasite growth at or above 70%?
[out] True

----------
Task for the reader: assign each of the following molecules its reported parasite growth.
- System: Toxoplasma gondii RH (in HFF)
- protocol_summary: parasite growth relative to the screen mean (all compounds = 100%); higher = less inhibition of parasite growth
- protocol_conditions: 5 µM; 72 h; oxygen 21 %
Structures can show the parent of a compound that is named as a salt.
Give bare numbers, in %.

In the examples that follow, each entry is paired with its recorded parasite growth.
> print(dat)
                                   molecule  parameter.measured  unit.spec  numeric.result
1  NC[C@@H]1O[C@H](C23CC4CC(CC(C4)C2)C3)Cc2c1ccc(O)c2O     parasite growth          %            89.5
2  CC(C)(C=O)Cc1cc(C(C)(C)C)c(O)c(C(C)(C)C)c1     parasite growth          %             199
3  Cc1ccccc1N1CCN(S(=O)(=O)C[C@]23CC[C@H](C[C@@H]2NC(=O)[C@@H](N)CCS(C)(=O)=O)C3(C)C)CC1 [L-368,899 hydrochloride]     parasite growth          %             161
4          Nc1nnc(Sc2ncc([N+](=O)[O-])s2)s1     parasite growth          %             116
5    CC(=O)NNC(=O)N1Cc2ccccc2Oc2ccc(Cl)cc21     parasite growth          %             136
6  FC(F)(F)c1cc(COC2CCCNC2c2ccccc2)cc(C(F)(F)F)c1 [L-733,060 hydrochloride]     parasite growth          %            29.6
7  O=C(O)c1ccc(-c2c[nH]c3ncc(-c4ccccc4)cc23)cc1C1CCCC1     parasite growth          %            46.2
8  O=c1[nH]ccc2c(S(=O)(=O)N3CCCNCC3)cccc12 [HA 1100 hydrochloride]     parasite growth          %             122

Quick request: parasite growth for each listed item, please.
1. COC(=O)[C@H]1[C@H]2C[C@H]3c4[nH]c5ccccc5c4CCN3C[C@H]2CC[C@@H]1O [Rauwolscine hydrochloride]
2. CNc1cc(OC)c(C(=O)NC2CCN(Cc3ccccc3)C2C)cc1Cl (stereo not given) [Nemonapride]
3. CC[C@@H]1C(=O)OC[C@@H]1Cc1cncn1C [Pilocarpine hydrochloride]
4. O=C1NC(=O)C(c2ccccc2[N+](=O)[O-])=C1Nc1ccc(O)c(Cl)c1
5. N#CC(=C(/N)Sc1ccccc1N)/C(C#N)=C(/N)Sc1ccccc1N
6. C[C@@H](N)[C@H]1CC[C@H](C(=O)Nc2ccncc2)CC1

[out]
1. 167
2. 95.4
3. 76.5
4. 155
5. 197
6. 92.3
